Origin of the recorded values: patent US11524944B2

# assayedTarget: Mouse AhR (Mus musculus, UniProt P30561)
# Sequence (P30561 whole entry P471L/N533S/M589L, form open): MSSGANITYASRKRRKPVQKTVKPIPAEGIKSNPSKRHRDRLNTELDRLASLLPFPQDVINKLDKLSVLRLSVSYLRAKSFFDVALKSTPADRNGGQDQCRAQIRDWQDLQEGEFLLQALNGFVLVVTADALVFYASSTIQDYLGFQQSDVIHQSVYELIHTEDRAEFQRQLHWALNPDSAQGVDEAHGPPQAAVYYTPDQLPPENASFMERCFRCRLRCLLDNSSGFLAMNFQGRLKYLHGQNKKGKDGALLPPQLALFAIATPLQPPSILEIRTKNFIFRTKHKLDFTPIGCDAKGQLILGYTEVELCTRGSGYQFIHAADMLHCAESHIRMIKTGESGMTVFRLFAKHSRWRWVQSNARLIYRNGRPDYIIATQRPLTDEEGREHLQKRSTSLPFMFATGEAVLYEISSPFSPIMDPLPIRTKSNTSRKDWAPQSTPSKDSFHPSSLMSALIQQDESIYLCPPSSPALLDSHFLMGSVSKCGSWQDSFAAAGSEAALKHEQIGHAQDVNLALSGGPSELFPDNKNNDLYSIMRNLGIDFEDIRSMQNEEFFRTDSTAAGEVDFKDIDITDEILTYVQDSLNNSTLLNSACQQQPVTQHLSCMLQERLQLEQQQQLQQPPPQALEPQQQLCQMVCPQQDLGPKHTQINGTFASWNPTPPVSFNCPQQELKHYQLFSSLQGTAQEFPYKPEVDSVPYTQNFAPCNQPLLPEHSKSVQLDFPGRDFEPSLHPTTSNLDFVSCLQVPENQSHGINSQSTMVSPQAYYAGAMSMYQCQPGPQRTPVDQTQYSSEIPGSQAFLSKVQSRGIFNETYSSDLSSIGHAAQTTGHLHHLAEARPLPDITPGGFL
# experiment: Transactivation assay in mouse cell line (in vitro assay 2): antagonism
# conditionSet: Hepa 1c1c7 cells, AHR inducible firefly luciferase reporter (DRE), 200 μM kynurenic acid, 20 hours
Quick list: IC50 per entry.
Dear colleague, please return just the value in nM, with no unit written.

# annotated cases, reported IC50 shown
In [3]: df
Out[3]:
                                   compound  measuredvalue
0  CC(C)(O)CNC(=O)c1cc(-c2ccc(Cl)cc2)nc(-c2ccc(F)cc2)n1 [Example 45]            161
1  C[C@@H](CO)NC(=O)c1cc(-c2ccc(Cl)cc2)nc(-c2cc(F)cc(F)c2)n1 [Example 74]             17
2  Cc1cc(-c2nc(C(=O)N[C@@H](C)CO)cc(-c3ccc(Cl)cc3)n2)ccc1F [Example 65]            134
3  C[C@@H](CO)NC(=O)c1cc(-c2ccc(Cl)cc2)nc(-c2cccc(C#N)c2)n1 [Example 70]            215
4  Cc1cccc(-c2nc(C(=O)NCC(C)(C)O)cc(-c3ccc(Cl)cc3)n2)c1 [Example 48]             26
5  C[C@@H](CO)NC(=O)c1cc(-c2ccc(Cl)cc2)nc(-c2ccc(Cl)cc2)n1 [Example 3]            532
6  C[C@@H](CO)NC(=O)c1cc(-c2ccc(OC(F)(F)F)cc2)nc(-c2cc(F)cc(F)c2)n1 [Example 39]           12.3
7  C[C@@H](CO)NC(=O)c1cc(-c2ccc(OC(F)(F)F)cc2)nc(-c2ccc(F)cc2)n1 [Example 28]            108

Read the entry C[C@@H](CO)NC(=O)c1cc(-c2ccc(OC(F)(F)F)cc2)nc(-c2ccc(F)c(Cl)c2)n1 [Example 33] and write its reported IC50. 397

Read the entry C[C@H](CO)NC(=O)c1cc(-c2ccc(Cl)cc2)nc(-c2cccc(F)c2)n1 [Example 2] and write its reported IC50. 13.3

Read the entry Cc1cccc(-c2nc(C(=O)NCC(C)(C)O)cc(-c3ccc(OC(F)(F)F)cc3)n2)c1 [Example 16] and write its reported IC50. 12.9

Read the entry C[C@@H](CO)NC(=O)c1cc(-c2ccc(OC(F)(F)F)cc2)nc(-c2cccc(Cl)c2)n1 [Example 37] and write its reported IC50. 8.49

Read the entry C[C@@H](CO)NC(=O)c1cc(-c2ccc(Cl)cc2)nc(-c2cccc(Cl)c2)n1 [Example 71] and write its reported IC50. 13.6

Read the entry Cc1cc(F)cc(-c2nc(C(=O)NCC(C)(C)O)cc(-c3ccc(Cl)cc3)n2)c1 [Example 60] and write its reported IC50. 908

----------
# assayedTarget: Human AhR (Homo sapiens)
# Sequence (P35869 11-848): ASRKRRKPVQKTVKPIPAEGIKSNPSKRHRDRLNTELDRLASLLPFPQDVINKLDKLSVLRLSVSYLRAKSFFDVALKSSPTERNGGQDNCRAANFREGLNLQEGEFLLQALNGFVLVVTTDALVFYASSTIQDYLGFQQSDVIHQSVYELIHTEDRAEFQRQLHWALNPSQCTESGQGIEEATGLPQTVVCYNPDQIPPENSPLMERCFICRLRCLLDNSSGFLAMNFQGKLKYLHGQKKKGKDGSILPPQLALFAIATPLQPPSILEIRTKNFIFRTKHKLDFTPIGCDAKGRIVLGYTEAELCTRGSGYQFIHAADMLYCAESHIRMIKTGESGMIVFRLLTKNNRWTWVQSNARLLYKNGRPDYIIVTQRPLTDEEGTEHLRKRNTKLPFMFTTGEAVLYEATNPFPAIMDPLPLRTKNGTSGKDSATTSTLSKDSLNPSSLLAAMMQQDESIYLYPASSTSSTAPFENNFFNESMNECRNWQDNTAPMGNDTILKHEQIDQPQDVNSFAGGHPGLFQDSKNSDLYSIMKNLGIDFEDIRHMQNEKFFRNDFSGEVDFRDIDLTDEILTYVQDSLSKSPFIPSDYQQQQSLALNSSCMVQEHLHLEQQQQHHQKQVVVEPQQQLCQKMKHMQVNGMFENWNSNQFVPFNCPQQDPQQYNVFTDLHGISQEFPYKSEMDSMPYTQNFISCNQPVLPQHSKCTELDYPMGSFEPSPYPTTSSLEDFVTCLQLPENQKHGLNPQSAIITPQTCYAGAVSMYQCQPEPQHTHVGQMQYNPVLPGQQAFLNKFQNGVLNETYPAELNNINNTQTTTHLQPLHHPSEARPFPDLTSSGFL
# experiment: Transactivation assay in human cell line (in vitro assay 1): antagonism
# conditionSet: U87 glioblastoma cells, AHR inducible firefly luciferase reporter (DRE), 150 μM kynurenic acid, 20 hours
Lab note - cut at 40 nM for IC50: 1 if strictly below, -1 if not.

Some solved cases for reference:
                                   compound             assayedtarget  classname
0  CC(C)(O)CNC(=O)c1cc(-c2ccc(Cl)cc2)nc(-c2ccc(F)cc2)n1  Human AhR (Homo sapiens)          1
1  CC(C)(O)CNC(=O)c1cc(-c2ccc(OC(F)(F)F)cc2)nc(-c2cccc(C#N)c2)n1  Human AhR (Homo sapiens)          1
2  COc1ccc(-c2nc(C(=O)NCC(C)(C)O)cc(-c3ccc(Cl)cc3)n2)cc1  Human AhR (Homo sapiens)         -1
3  O=C(NC1CCCC(F)(F)C1O)c1cc(-c2ccc(OC(F)(F)F)cc2)nc(-c2cccc(F)c2)n1 (stereo not shown)  Human AhR (Homo sapiens)          1
4  CC(C)(O)CNC(=O)c1cc(-c2ccc(OC(F)(F)F)cc2)nc(-c2ccc(C(F)F)cc2)n1  Human AhR (Homo sapiens)         -1

Please look at the following compound next.
Dear colleague, could you confirm whether IC50 of CC(NC(=O)c1cc(-c2ccc(OC(F)(F)F)cc2)nc(-c2cccc(F)c2)n1)C(O)CO (stereo not shown) falls below 40 nM? Thanks. 1
